Reference for the values: paper PMC7606641

Design: species or system CD-1 mice
Details: mouse, in vivo, iv
Entries annotated with measured Blood to Brain Influx Ki
Record the value in µL/g/min, omitting the unit from your answer.

# count of solved cases: 2
YXEGTFTSDYSIYLDKQAAXEFVNWLLAGGPSSGAPPPSK-NH2 [DA3-CH] | 0.3922
YXEGTFTSDYSIYLDKQAAXEFVNWLLAGGPSSGAPPPSKKKKKK-NH2 [DA-JC4] | 0.6680

Note: attention shifts to another entry.
Ask | Request the reported Blood to Brain Influx Ki associated with YXEGTFTSDYSIYLDKQAAXEFVNWLLAGGPSSGAPPPSC-NH2 [Peptide 17]
Reply | 0.3489

###

Set-up: species or system CD-1 mice
Conditions: mouse, in vivo, iv
Entries annotated with measured Capillary Depletion: Parenchyma (parenchyma/serum ratio)
Record the value in µL/g, omitting the unit from your answer.

# count of solved cases: 3
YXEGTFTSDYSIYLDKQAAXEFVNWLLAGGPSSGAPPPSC-NH2 [Peptide 17] | 1.482
YXEGTFTSDYSIYLDKQAAXEFVNWLLAGGPSSGAPPPSK-NH2 [Peptide 18] | -0.306
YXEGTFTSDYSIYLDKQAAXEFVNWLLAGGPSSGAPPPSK-NH2 [DA3-CH] | 3.918

Ask | Request the reported Capillary Depletion: Parenchyma (parenchyma/serum ratio) associated with YXEGTFTSDYSIYLDKQAAXEFVC ^*WLLAGGPSSGAPPPSK-NH2 [Peptide 20]
Reply | 0.615

Ask | Request the reported Capillary Depletion: Parenchyma (parenchyma/serum ratio) associated with HXEGTFTSDVSSYLEGQAAK^bEFIAWLVRGRG-OH [Semaglutide]
Reply | -0.850

Ask | Request the reported Capillary Depletion: Parenchyma (parenchyma/serum ratio) associated with YXEGTFTSDYSIYLDKQAAXEFVNWLLAGGPSSGAPPPSKKKKKK-NH2 [DA-JC4]
Reply | 9.855

###

Set-up: species or system CD-1 mice
Conditions: mouse, in vivo, iv
REPORTED_ENDPOINT: 125I-IRA remaining intact, Serum, 10 min (%)
Record the value in %, omitting the unit from your answer.

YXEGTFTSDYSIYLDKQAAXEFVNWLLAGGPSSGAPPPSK-NH2 [Peptide 18] | 99.85
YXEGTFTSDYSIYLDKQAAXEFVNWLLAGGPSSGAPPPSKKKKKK-NH2 [DA-JC4] | 85.66
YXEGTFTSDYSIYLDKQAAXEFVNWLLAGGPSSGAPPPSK-NH2 [DA3-CH] | 93.26
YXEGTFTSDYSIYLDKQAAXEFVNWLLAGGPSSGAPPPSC-NH2 [Peptide 17] | 95.77
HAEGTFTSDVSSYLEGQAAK^aEFIAWLVRGRG-OH [Liraglutide] | 101.2

Ask | Request the reported 125I-IRA remaining intact, Serum, 10 min associated with HXEGTFTSDVSSYLEGQAAK^bEFIAWLVRGRG-OH [Semaglutide]
Reply | 100.0

Ask | Request the reported 125I-IRA remaining intact, Serum, 10 min associated with YXEGTFTSDYSIYLDKQAAXEFVC ^*WLLAGGPSSGAPPPSK-NH2 [Peptide 20]
Reply | 100.16

###

Experiment: Saturability of brain uptake
Design: species or system CD-1 mice
Settings: mouse, in vivo, iv
REPORTED_ENDPOINT: Serum radioactivity, Without Unlabeled IRA (cpm/μL)
Record the value in cpm/μL, omitting the unit from your answer.

# count of solved cases: 4
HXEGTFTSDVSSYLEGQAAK^bEFIAWLVRGRG-OH [Semaglutide] | 692.1
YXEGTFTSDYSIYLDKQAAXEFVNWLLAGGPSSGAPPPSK-NH2 [DA3-CH] | 65.07
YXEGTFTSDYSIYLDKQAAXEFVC ^*WLLAGGPSSGAPPPSK-NH2 [Peptide 20] | 217.3
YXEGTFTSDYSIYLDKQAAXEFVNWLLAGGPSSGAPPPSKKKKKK-NH2 [DA-JC4] | 29.32

Ask | Request the reported Serum radioactivity, Without Unlabeled IRA associated with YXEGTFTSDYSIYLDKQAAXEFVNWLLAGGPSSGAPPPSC-NH2 [Peptide 17]
Reply | 81.33
